assay.remarks: Oral bioavailability in mice at 20 mg/kg, po
Assay type: ADME, organism-based
condition.description: mouse, in vivo
measured.parameter: bioavailability
Please state the number and follow it with the unit.

Fill in: bioavailability of COc1cc(C)c(Sc2cnc(NC(=O)c3ccc(CNC(C)C(C)(C)C)cc3)s2)cc1C(=O)N1CCN(C(C)=O)CC1 (stereo unspecified) is ___
6.4%

* * *

assay.remarks: Mean residence time in mice at 20 mg/kg, po
Assay type: ADME, organism-based
Set-up: dose 20 mg/kg, route oral
condition.description: mouse, in vivo
measured.parameter: MRT (h)
Answers are plain numbers, in h.

Fill in: MRT of COc1cc(C)c(Sc2cnc(NC(=O)c3ccc(CNC(C)C(C)(C)C)cc3)s2)cc1C(=O)N1CCN(C(C)=O)CC1 (stereo unspecified) is ___
3.1
